- ASSAY TARGET: UniProtKB P29275
- Sequence (P29275 whole entry): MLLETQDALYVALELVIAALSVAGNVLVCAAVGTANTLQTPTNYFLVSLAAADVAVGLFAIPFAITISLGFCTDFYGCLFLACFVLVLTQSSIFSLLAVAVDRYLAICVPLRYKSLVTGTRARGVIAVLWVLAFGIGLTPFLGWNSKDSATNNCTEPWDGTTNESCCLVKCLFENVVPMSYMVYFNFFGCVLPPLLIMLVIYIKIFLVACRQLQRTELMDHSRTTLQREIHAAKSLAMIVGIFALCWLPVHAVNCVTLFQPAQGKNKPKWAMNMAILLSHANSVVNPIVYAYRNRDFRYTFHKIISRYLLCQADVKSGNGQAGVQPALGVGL
- ASSAY SUMMARY: Radioligand competitive binding, ADENOSINE A2B (HEK293), [3H]-DPCPX (Table 8)
- Parameters: purchased Receptor Biology; host or cells: HEK 293
- EXPERIMENTAL SETUP: [3H]-DPCPX 30-40 nM
ENDPOINT NAME: Ki (nM)

MOLECULE | Ki, nM
CCCn1c(=O)c2nc(C34CCC(C5=NOC(C(=O)O)C5)(CC3)CC4)[nH]c2n(CCC)c1=O (centres unmarked) [Compound 16] | 131
CCCn1c(=O)c2[nH]c(C34CCC(CN)(CC3)CC4)nc2n(CCC)c1=O [Compound 8] | 55.2
CCCn1c(=O)c2[nH]c(C34CCC(/C=C/C(=O)O)(CC3)CC4)nc2n(CCC)c1=O [Compound 12] | 100

[P] CCCn1c(=O)c2[nH]c(C3CC4CCC(C3)C4NCC(=O)OCC)nc2n(CCC)c1=O (centres unmarked) [Compound 11]
[Q] CCCn1c(=O)c2[nH]c(C34CCC(CN(C)C)(CC3)CC4)nc2n(CCN)c1=O [Compound 4]
So which one has the bigger Ki here, P or Q ? Lab note: record the label of whichever item you select.
P
(P: 93 nM, Q: 39 nM)

[1] CCCn1c(=O)c2[nH]c(C34CCC(OCCC(=O)O)(CC3)C4)nc2n(CCC)c1=O [Compound 14]
[2] CCCn1c(=O)c2nc(C34CCC(CCC(=O)Nc5nnn[nH]5)(CC3)CC4)[nH]c2n(CCC)c1=O [Compound 10]
[3] CCCn1c(=O)c2[nH]c(C34CCC(OCC(=O)O)(CC3)C4)nc2n(CCC)c1=O [Compound 2]
Sort entries by Ki from minimum to maximum value. Answer by naming the labels in the order asked.
3, 2, 1

[a] CCCn1c(=O)c2[nH]c(C34CCCC(OCC(=O)O)(CC3)CC4)nc2n(CCC)c1=O [Compound 18]
[b] CCCn1c(=O)c2[nH]c(C34CCC(O)C(CC3)C4)nc2n(CCC)c1=O (centres unmarked) [Compound 9]
// select label with min value of measured Ki from [ a , b ] Lab note: record the label of whichever item you select.
b

[P] CCCn1c(=O)c2[nH]c(C34CCC(/C=C/C(=O)O)(CC3)OC4)nc2n(CCC)c1=O [Compound 13]
[Q] CCCn1c(=O)c2[nH]c(-c3ccc(C#N)cc3)c(O)c2n(CCC)c1=O [Compound 3]
[R] CCCn1c(=O)c2[nH]c(C34CCCC(O)(CC3)CC4)nc2n(CCC)c1=O [Compound 6]
Sort entries by Ki from minimum to maximum value. Answer by naming the labels in the order asked.
Q, R, P
(Q: 27 nM, R: 47 nM, P: 117 nM)

Origin of measurements: patent US20050203065A1
